test system: Stellaria media (common chickweed); assay: Herbicidal post-emergence action (PO), STEME; type: in vivo; settings: dose 1000 g/ha, rated visually after about 2 weeks
Assign herbicidal effect STEME to each entry below.
Give bare numbers, in %.

>>> data_value("CC(=O)Nc1cccc(Nc2ncc(Cl)c(NC3CCC3)n2)c1 [Compound 123]")
70

Please state, for each entry, its recorded herbicidal effect STEME.
1. CS(=O)(=O)Nc1cccc(Nc2ncc(Br)c(NC3CCC3)n2)c1 [Compound 87]
2. CN(C)C(=O)c1cccc(Nc2ncc(Br)c(NC3CCC3)n2)c1 [Compound 155]
3. CS(=O)(=O)Cc1cccc(Nc2ncc(Br)c(NC3CCC3)n2)c1 [Compound 88]
4. O=c1[nH]c2ccc(Nc3ncc(Br)c(NC4CCC4)n3)cc2o1 [Compound 5]
5. N#CCC(=O)c1ccc(Nc2ncc(Br)c(NC3CCC3)n2)cc1 [Compound 149]
6. CN(C)C(=O)c1ccc(Nc2ncc(Br)c(NC3CCC3)n2)cc1 [Compound 100]
7. CC(=O)Nc1cccc(Nc2ncc(Br)c(NC3CCC3)n2)c1 [Compound 96]
8. CN1CCN(c2cccc(Nc3ncc(Br)c(NC4CCC4)n3)c2)C1=O [Compound 59]

[70, 80, 80, 70, 70, 70, 70, 80]

Please state, for each entry, its recorded herbicidal effect STEME.
1. CSc1cccc(Nc2ncc(Cl)c(NC3CCC3)n2)c1 [Compound 128]
2. O=C1COCCN1c1ccc(Nc2ncc(Br)c(NC3CCC3)n2)cc1 [Compound 50]
3. O=C1CCCN1c1cccc(Nc2ncc(Br)c(NC3CCC3)n2)c1 [Compound 45]
4. CSc1ccc(Nc2ncc(Cl)c(NC3CCC3)n2)cc1 [Compound 129]
5. CSc1cccc(Nc2ncc(Br)c(NC3CCC3)n2)c1 [Compound 44]

[90, 80, 80, 70, 70]

Return reported herbicidal effect STEME; argument: CCOC(=O)Cc1ccc(Nc2ncc(Br)c(NC3CCC3)n2)cc1 [Compound 148]
70

* * *

experiment: logP by LC-MS, method [b], acidic range pH 2.7; format: physicochemical; conditions: pH 2.7
READOUT_NAME: log p

Record excerpt, results attached:
>>> data_value("CCOC(=O)c1cccc(Nc2ncc(Br)c(NC3CCC3)n2)c1")
"2.77[b]"
>>> data_value("CCOC(=O)Cc1ccc(Nc2ncc(Br)c(NC3CCC3)n2)cc1")
"2.3[b]"
>>> data_value("CN(C)C(=O)c1cccc(Nc2ncc(Cl)c(NC3CCC3)n2)c1")
"1.57[b]"
>>> data_value("O=C(Nc1ccccc1)c1ccc(Nc2ncc(Br)c(NC3CCC3)n2)cc1")
"2.09[b]"

Please state, for each entry, its recorded log p.
1. CCC(=O)c1cc(Nc2ncc(Br)c(NC3CCC3)n2)ccc1O
2. CC1(C(=O)Nc2ccc(Nc3ncc(Br)c(NC4CCC4)n3)cc2)CC1
3. COc1cc(Nc2ncc(Br)c(NC3CCC3)n2)ccc1NS(C)(=O)=O
4. CCc1nc2cc(Nc3ncc(Br)c(NC4CCC4)n3)ccc2o1
5. N#CCc1cccc(Nc2ncc(Cl)c(NC3CCC3)n2)c1

2.39[b]
2[b]
1.75[b]
2.06[b]
1.97[b]

Please state, for each entry, its recorded log p.
1. CC(C)c1cccc(Nc2ncc(C(F)(F)F)c(NC3CCC3)n2)c1
2. CN1CC(=O)N(c2ccc(Nc3ncc(Br)c(NC4CCC4)n3)cc2)C1=O
3. Brc1cnc(Nc2ccccc2)nc1NC1CCC1
4. Cc1ccccc1Nc1ncc(Br)c(NC2CCC2)n1
5. COCC(C)Oc1ccc(Nc2ncc(Br)c(NC3CCC3)n2)cc1 (centres unmarked)

1. 4.61[b]
2. 1.63[b]
3. 2.18[b]
4. 1.87[b]
5. 2.11[b]

Please state, for each entry, its recorded log p.
1. O=S(=O)(c1cccc(Nc2ncc(Cl)c(NC3CCC3)n2)c1)N1CCCCC1
2. N#Cc1cccc(Nc2ncc(Cl)c(NC3CCC3)n2)c1
3. CC(C)(C)c1cccc(Nc2ncc(Br)c(NC3CCC3)n2)c1
4. CCc1cccc(Nc2ncc(Cl)c(NC3CCC3)n2)c1
5. COc1cc(Nc2ncc(Br)c(NC3CCC3)n2)ccc1NC(C)=O
6. CC(C)c1cccc(Nc2ncc(Cl)c(NC3CCC3)n2)c1
7. O=c1oc2ccc(Nc3ncc(Br)c(NC4CCC4)n3)cc2s1

["2.3[b]", "2.46[b]", "3.67[b]", "2.67[b]", "1.59[b]", "3.1[b]", "2.63[b]"]

Please state, for each entry, its recorded log p.
1. CC(=O)CCc1cccc(Nc2ncc(Cl)c(NC3CCC3)n2)c1
2. O=C1CCCN1c1cccc(Nc2ncc(Br)c(NC3CCC3)n2)c1
3. N#Cc1cnc(Nc2ccccc2)nc1NC1CCC1
4. FC(F)Sc1ccc(Nc2ncc(Br)c(NC3CCC3)n2)cc1
5. CNC(=O)Oc1cccc(Nc2ncc(Cl)c(NC3CCC3)n2)c1
6. CS(=O)(=O)Nc1ccc(Nc2ncc(Br)c(NC3CCC3)n2)cc1

1: 1.98[b]; 2: 1.84[b]; 3: 2.92[b]; 4: 3.41[b]; 5: 1.64[b]; 6: 1.61[b]

Every entry's value here was drawn from patent US20110105472A1.
